B1: KCNAB2 (parent)
chain: YVDVVFANRPDPNTPMEETVRAMT

variants of: B1; assay: protein stability index of a GFP-peptide fusion (GPS, HEK-293T) (PSI 1-6); higher = more stable; conditions: c terminus: a fixed tail appended;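 also: lentivirally expressed fusions sorted by FACS into six bins by GFP to DsRed ratio, PSI derived from sequencing read proportions per bin multiplied by bin number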
Reported values of protein stability index for individual entries

# Mutations, protein stability index
data = [
    ("M23P", 2.14),
    ("P15N", 1.97),
    ("T24C", 1.98),
    ("V5K", 1.82),
    ("D11F", 2.46),
    ("M16E", 2.02),
    ("R21W", 2.27),
    ("D11E", 1.6),
    ("F6M", 2.3),
    ("P10M", 2.62),
    ("D3T", 1.82),
    ("E18V", 2.43),
    ("V20F", 1.64),
    ("D11V", 2.53),
    ("D3M", 3.61),
    ("P15W", 1.78),
    ("N13E", 2.5),
    ("D3N", 2.01),
    ("R21V", 1.58),
    ("P12A", 2.27),
    ("M16N", 2.2),
    ("A7R", 1.97),
    ("T24I", 1.78),
    ("V2D", 4.91),
    ("P15T", 1.94),
    ("R21P", 2.1),
    ("R21Q", 2.18),
    ("V4E", 2.07),
    ("E17N", 2.76),
    ("F6A", 2.79),
    ("A22H", 2.27),
    ("N8D", 1.79),
    ("F6T", 3.11),
    ("T24H", 1.74),
    ("T14I", 3.12),
    ("V20R", 1.82),
    ("T19G", 1.9),
    ("V4A", 1.98),
    ("P12G", 2.31),
    ("P12L", 2.51),
    ("A7D", 2.02),
    ("R9Y", 1.47),
    ("E18W", 1.85),
    ("A22Q", 1.85),
    ("E18D", 2.04),
    ("N13F", 2.09),
]

meta.source: the supplement of paper PMC10567573
